System: Prunus dulcis
experiment.notes: Inhibition of almond Beta-glucosidase using p-nitrophenyl glycoside as substrate assessed as release of p-nitrophenol at 1000 uM by spectrometric analysis relative to control
Readings of inhibition for the listed molecules
Answer with a number only, understood to be in %.

Some molecules with recorded inhibition:
| chemical.smiles | inhibition [%] |
| --- | --- |
| O[C@H]1[C@H]2[C@@H](O)C[C@H](F)CN2C[C@H]1O | 3.2 |
| O[C@@H]1[C@@H]2[C@@H](O)CC(F)(F)CN2C[C@@H]1O | 10.5 |
| O[C@H]1[C@H]2[C@H](O)CCCN2C[C@H]1O | 2.1 |
| O[C@@H]1[C@@H]2[C@@H](O)C[C@@H](F)CN2C[C@@H]1O | 0 |
| O[C@H]1[C@H]2[C@H](O)C[C@@H](F)CN2C[C@H]1O | 0.5 |

Prompt line: What value of measured inhibition is listed for O[C@H]1[C@H]2[C@@H](O)C[C@@H](F)CN2C[C@H]1O ?
Response line: 5.3

Prompt line: Quick one: O[C@@H]1[C@@H]2[C@H](O)C[C@@H](F)CN2C[C@@H]1O
Response line: 4.7
